# Tested on: WI-38 (human fetal lung fibroblasts)
# assay: MTT cytotoxicity assay, normal cell line WI-38
# Type: cell-based
# reported-conditions: Homo sapiens, normal WI-38 cells, 50% cell growth inhibition after 72 h of drug exposure, read-out: IC50(μM) WI38
IC50 for assorted compounds

{"compound": "C[C@H]1[C@@H](O)O[C@@H]2O[C@@]3(C)CC[C@H]4[C@H](C)CC[C@@H]1[C@@]24OO3 [DHA, dihydroartemisinin]", "IC50": "> 100 µM"}
{"compound": "C[C@@H]1CC[C@H]2[C@@H](C)C(OCCNC(=O)c3ccc(COc4ccc(/C=C/S(=O)(=O)Nc5ccc(Cl)cc5)cc4)cc3)O[C@@H]3O[C@@]4(C)CC[C@@H]1[C@]32OO4 (some centres unmarked)", "IC50": "24.7 µM"}
{"compound": "C[C@@H]1CC[C@H]2[C@@H](C)C(OCCOc3ccc(/C=C/S(=O)(=O)Nc4ccc(Cl)cc4)cc3)O[C@@H]3O[C@@]4(C)CC[C@@H]1[C@]32OO4 (some centres unmarked)", "IC50": "19.9 µM"}
{"compound": "C[C@@H]1CC[C@H]2[C@@H](C)C(OCCNC(=O)c3ccc(COc4ccc(/C=C/S(=O)(=O)Nc5cccc(Cl)c5)cc4)cc3)O[C@@H]3O[C@@]4(C)CC[C@@H]1[C@]32OO4 (some centres unmarked)", "IC50": "35.8 µM"}
{"compound": "Cc1ccccc1NS(=O)(=O)/C=C/c1ccc(OCc2ccc(C(=O)NCCOC3O[C@@H]4O[C@@]5(C)CC[C@H]6[C@H](C)CC[C@@H]([C@H]3C)[C@@]46OO5)cc2)cc1 (some centres unmarked)", "IC50": "16.4 µM"}

These measurements were taken from paper PMC6270595.
